- System: L1210 leukemia ip in BDF1 mice, survival T/C
- Test summary: NCI In Vivo Anticancer Drug Screen. Data for tumor model L1210 Leukemia (intraperitoneal) in B6D2F1 (BDF1) mice
- Reported conditions: endpoint: mean survival time; dose: 100.0 mg/kg/injection; schedule: Q04DX003 (ip); vehicle: saline with Tween-80; higher = longer survival
Inconclusive results and toxic doses are left out.
Reported property: T/C

> print(dat)
                                    compound  reported.property          measured
 1                   Clc1cc2c(c3c1CONC3)OCO2                T/C   92 % of control
 2         CCCCCCCCCCCCCCCCCCNC(=S)Nc1ccccc1                T/C   95 % of control
 3                      C=CCc1cnc(N)[nH]c1=O                T/C  103 % of control
 4  CC(C)N(C(=O)c1ccc(C(=O)N(c2ccccc2)C(C)C)cc1)c1ccccc1                T/C  100 % of control
 5                   CC1=Nc2onc(C)c2N=C(C)C1                T/C  100 % of control
 6     N#CCC(C#N)N1CCOCC1 (stereo not drawn)                T/C   97 % of control
 7  Cc1c(Cl)cccc1NC(=O)Nc1ccc(S(N)(=O)=O)cc1                T/C  100 % of control
 8          Cc1ccccc1-c1nc2cc(Cl)ccc2c(=O)o1                T/C  100 % of control
 9           CCOC(=O)c1cnc(SC)nc1Nc1ccccc1Cl                T/C   87 % of control
10     CC(=O)Oc1cccc(OC(=O)Nc2cccc(Cl)c2C)c1                T/C   88 % of control
11                    Cc1cc(CCCC(=O)O)c(C)s1                T/C  101 % of control
12   O=C(O)/C=C/C(=O)Nc1ccc([N+](=O)[O-])cc1                T/C  107 % of control
13  CCCC(C)C(=O)Nc1cccc(OC(=O)N(C)C)c1 (stereo not drawn)                T/C   95 % of control

* * *

- System: L1210 leukemia ip in BDF1 mice, survival T/C
- Test summary: NCI In Vivo Anticancer Drug Screen. Data for tumor model L1210 Leukemia (intraperitoneal) in B6D2F1 (BDF1) mice
- Reported conditions: endpoint: mean survival time; dose: 200.0 mg/kg/injection; schedule: Q01DX001 (ip); vehicle: Klucel (hydroxypropylcellulose) (HPC); higher = longer survival
Inconclusive results and toxic doses are left out.
Reported property: T/C

> print(dat)
                                    molecule                         system.under.test  reported.property          measured
 1                 COC(=O)C1=CN(C(=O)OC)CCC1  L1210 leukemia ip in BDF1 mice, survival T/C                T/C   88 % of control
 2  CC1(C)N=C(N)N=C(N)N1c1cccc(OCCCOc2ccccc2)c1  L1210 leukemia ip in BDF1 mice, survival T/C                T/C  102 % of control
 3          c1ccc(Cc2cc(-c3ccccc3)n[nH]2)cc1  L1210 leukemia ip in BDF1 mice, survival T/C                T/C  101 % of control
 4                         NC(=O)c1cn[nH]c1N  L1210 leukemia ip in BDF1 mice, survival T/C                T/C  104 % of control
 5                           CNc1ncnc(Cl)c1N  L1210 leukemia ip in BDF1 mice, survival T/C                T/C  107 % of control
 6  Cc1cn(CCCCOC(=O)c2ccc([N+](=O)[O-])cc2)c(=O)[nH]c1=O  L1210 leukemia ip in BDF1 mice, survival T/C                T/C  100 % of control
 7  Cc1ccc(S(=O)(=O)Nc2ccc([N+](=O)[O-])cc2)cc1  L1210 leukemia ip in BDF1 mice, survival T/C                T/C   97 % of control
 8                         CCC1(CCCCBr)OCCO1  L1210 leukemia ip in BDF1 mice, survival T/C                T/C  100 % of control
 9  O=S(=O)(OCC(O)C1OCOC2COCOC21)c1ccccc1 (stereo not drawn)  L1210 leukemia ip in BDF1 mice, survival T/C                T/C   93 % of control
10                 O=C(O)C(c1ccccc1)c1ccccc1  L1210 leukemia ip in BDF1 mice, survival T/C                T/C  101 % of control
11  O=C1C(c2ccccc2)=C2c3ccccc3-c3ccccc3C2(O)C1c1ccccc1 (stereo not drawn)  L1210 leukemia ip in BDF1 mice, survival T/C                T/C  103 % of control
12                Cc1ccc(NC(=O)c2ccco2)cc1Cl  L1210 leukemia ip in BDF1 mice, survival T/C                T/C   89 % of control
13  CCOC(=O)C1NC(=O)C(C(=O)OCC)C1C(C)C (stereo not drawn)  L1210 leukemia ip in BDF1 mice, survival T/C                T/C  103 % of control
